System: HL-60(TB) leukemia
Assay: NCI tumour cell line growth inhibition, 48 h
Decision: TGI >= 9 µM yields Y, all other cases yield N.

O=c1cc(O)ccn1C1C=C(CO)C(O)C1O (stereo not given) : Y
CC(=O)O[C@H]1C(=O)[C@@]2(C)[C@H]([C@H](OC(=O)C3CCCCC3)[C@]3(O)C[C@H](OC(=O)[C@H](O)[C@@H](NC(=O)OC(C)(C)C)c4ccccc4)C(C)=C1C3(C)C)[C@]1(OC(C)=O)CO[C@@H]1C[C@@H]2O : N
O=Cc1cn(CCCCCn2cc(C=O)c3ccccc32)c2ccccc12 : Y
[O-][n+]1c2cc(CBr)c(CBr)cc2[n+]([O-])c2c(O)cccc21 : N

We next turn to a different molecule, shown below.
Q: Does the molecule N#C/C(=C/N1C(=O)/C(=C/c2ccc([N+](=O)[O-])cc2)SC1=S)c1nc2ccccc2s1 have recorded TGI that is 9 µM or more?
A: Y

Values compiled from PubChem BioAssay (NCI).
